Where do these numbers come from? They come from patent US20170298096A1.

# Target system: T1, His-tagged P3028 (human, also: His-tag, terminus and sequence not given here)
# T1 construct: in solution at 0.5 ug/mL over the peptide cards; found with anti-His-tag antibody and rabbit anti-mouse peroxidase (rampo); also called PGE73; not shown: His-tag
# T1 peptide: VFDEFKPLVEEPQNLIK
# Assay info: PEPSCAN chip ELISA, His-P3028 in solution;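 further: score is the raw OD at 405 nm from peroxidase colour with ABTS, imaged by CCD camera before and after staining, with wells showing air bubbles set to zero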
No end group written: not given here.
Observation type: RAMPO Score (rampo score)
Give bare numbers, in rampo score.

Solved cases (3 shown):
{"Binder": "KKLDTPFVKLSLFTER [SEQ ID NO 317]", "RAMPO Score [rampo score]": 497}
{"Binder": "KKLDTFFVQLSLFTER [SEQ ID NO 469]", "RAMPO Score [rampo score]": 330}
{"Binder": "KKLDTFHVKLSLFTER [SEQ ID NO 433]", "RAMPO Score [rampo score]": 364}

Hey, quick one: what's RAMPO Score for each of these?
1. KKLATFFVKLSLFTER [SEQ ID NO 298]
2. KKLDTFSVKLSLFTER [SEQ ID NO 323]
3. KKLDTFFVKLSLFQER [SEQ ID NO 493]
4. GKLDTFFVKLSLFTER [SEQ ID NO 271]

Solution:
1: 494; 2: 700; 3: 301; 4: 367
